# credit: patent US20040204497A1

Experiment: Stability of octopamine forms exposed to the atmosphere (in-house results)
Type: physicochemical
Conditions: normal atmospheric conditions; according to our calculations
Structures can show the parent of a compound that is named as a salt.

compound	half-life
NCC(O)c1ccc(O)cc1 (stereo not shown) [Octopamine HCl]	≥ 1830 days
